Assay target: AP-2 complex subunit beta (Homo sapiens) (UniProt P63010)
Sequence (P63010 whole entry, looked up, one chain of several): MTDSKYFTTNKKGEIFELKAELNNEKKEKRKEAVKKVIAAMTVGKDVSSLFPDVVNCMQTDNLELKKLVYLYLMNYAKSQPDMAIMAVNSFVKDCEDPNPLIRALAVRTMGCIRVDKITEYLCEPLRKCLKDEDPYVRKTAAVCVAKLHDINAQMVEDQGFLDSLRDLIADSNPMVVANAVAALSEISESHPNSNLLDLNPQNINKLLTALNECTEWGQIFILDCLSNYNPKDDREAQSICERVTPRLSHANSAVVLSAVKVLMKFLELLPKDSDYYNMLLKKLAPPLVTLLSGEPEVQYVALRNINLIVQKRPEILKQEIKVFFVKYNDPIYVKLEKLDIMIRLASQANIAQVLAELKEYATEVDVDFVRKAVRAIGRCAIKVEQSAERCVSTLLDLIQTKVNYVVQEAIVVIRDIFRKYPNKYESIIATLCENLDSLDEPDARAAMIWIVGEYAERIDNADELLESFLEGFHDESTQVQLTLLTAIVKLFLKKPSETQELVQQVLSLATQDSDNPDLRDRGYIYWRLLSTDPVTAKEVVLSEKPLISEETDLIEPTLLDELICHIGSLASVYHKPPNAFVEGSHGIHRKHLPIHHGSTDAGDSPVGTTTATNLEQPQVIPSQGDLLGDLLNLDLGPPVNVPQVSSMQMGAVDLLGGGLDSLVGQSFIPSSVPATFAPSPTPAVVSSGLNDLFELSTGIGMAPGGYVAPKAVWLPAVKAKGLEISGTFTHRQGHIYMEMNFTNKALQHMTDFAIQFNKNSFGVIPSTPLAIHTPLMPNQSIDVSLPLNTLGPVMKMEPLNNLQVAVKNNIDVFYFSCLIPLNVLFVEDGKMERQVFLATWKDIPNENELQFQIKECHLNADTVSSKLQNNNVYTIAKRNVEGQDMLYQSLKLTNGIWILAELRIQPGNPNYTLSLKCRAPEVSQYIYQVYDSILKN
Test name: inhibitors of arrestin peptide binding to AP2, pilot screen, biochemical, validation set, GST-AP2 beads, flow cytometry (AID 504541);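 further: AP2 carries R879A mutation and is captured from E. coli lysate; bead-bound FITC arrestin peptide fluorescence measuring arrestin peptide binding to AP2; 0% = DMSO wells and 100% = excess unlabeled arrestin peptide control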
Protocol conditions: FITC arrestin peptide, at 10 µM, active compounds read high, AP2 beta2 appendage fragment, R879A mutant
Endpoint: inhibition (%)
Value expressed in %; do not type the unit.

Molecule	inhibition (%)
COC1CCCCC1Nc1ccc(C)c(C)c1 (stereo unspecified)	-5.05
O=C(NCCc1cccc(F)c1)[C@@H]1CSC2c3ccccc3C(=O)N21 (stereo partly specified)	-1.7
COc1ccc(-c2coc3cc(O)cc(O)c3c2=O)cc1	1.72
CN1C(=O)C(O)(CC(=O)c2ccccc2O)c2cc(Br)ccc21 (stereo unspecified)	4.33
Cc1ccccc1OCCSc1nc2ncnc(N)c2[nH]1	-6.91
C[C@]12CC[C@@H]3c4cc(O)c(O)cc4CC[C@H]3[C@@H]1CC[C@@H]2O	2.25
O=C(c1ccccc1F)c1cc2c(cc1[N+](=O)[O-])OCCO2	-6.21
COc1ccc(C(=O)[C@H]2[C@H]3C(=O)N(c4ccccc4)C(=O)[C@H]3C3C=CC=NN32)cc1 (stereo partly specified)	28.5

# get_value(readout='inhibition', item= COc1ccccc1C(CC(=O)Nc1ccccc1C)c1ccc(OC(C)C)cc1 (stereo unspecified) )
-4.43

Repeat for the following molecule: COc1ccc2[nH]cc(C(=O)CCl)c2c1
24.1

Also N/C(=N\OS(=O)(=O)c1ccc2ccccc2c1)c1cccnc1 ?
45.4

Also check NC(=O)N1c2ccccc2C=Cc2ccccc21
1.72

Next up: COc1ccc(CCN(C)CC(=O)Nc2cc(C)nc3ccccc23)cc1OC
-0.03

And CNS(=O)(=O)c1ccc(C)cc1 ?
-8.71

Input Cc1oc2c(C)c3oc(=O)c4c(c3cc2c1C)CCCC4
-2.86

Param item: O=C1c2ccccc2C(=O)C1c1ccccc1
-6.92

What about this molecule? O=C(OCC1OC2OC3(CCCCC3)OC2C2OC3(CCCCC3)OC12)c1ccccc1 (stereo unspecified)
5.67

Another molecule: CC1(C)OC2OC(C(=O)N/N=C/c3ccccc3F)C3OC(C)(C)OC3C2O1 (stereo unspecified)
0.54

What do you have for CC(NC(=O)c1ccc(OC2CCN(Cc3ccccn3)CC2)cc1)c1ccccc1 (stereo unspecified) ?
32.2

Query O=C(O)c1cc(-c2ccc3c(c2)OCO3)nc2ccc(Br)cc12 next
12

# iterate: COc1cccc(OCc2cc(C3Nc4ccccc4C(=O)N3Cc3ccco3)ccc2OC)c1 (stereo unspecified)
-4.8

Can you handle CNC[C@H](O)c1ccc(O)c(O)c1 next?
2.4

Can you handle COc1ccc(CN(C)CCc2ccccn2)cc1OC next?
-9.53

# iterate: CCCN(CCC)S(=O)(=O)c1ccc(C(=O)O)cc1
-3.49

Also check CC(CCc1ccccc1)NCC(O)c1ccc(O)c(C(N)=O)c1 (stereo unspecified)
-4.92

Item: C=C(C)c1nc2cc(OC)c(OC)cc2c(=O)o1
0.91

* * *

Test name: modulators of MEP2-GFP levels in yeast, primary screen, S. cerevisiae, multiplex flow cytometry (AID 1867);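 further: median GFP channel fluorescence of barcode-gated MEP2-GFP cells measured by flow cytometry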
Protocol conditions: S. cerevisiae MEP2-GFP strain, 3 h, at 10 µM, active compounds read high, 100% means same as DMSO wells
Inconclusive results are not listed. Active and inactive are the calls of the source.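 Rule for the calls: active = GFP response, as percent of the DMSO control, above the screen-wide mean plus 3 SD, about 139; inconclusive = no response measured because the compound's own fluorescence interfered; inactive = the rest.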
Entries and their GFP response vs DMSO

For orientation, consider the following solved cases.
Compound	Endpoint	Observed measurement
Cn1nc(-c2ccccn2)nc2c(=O)n(C)c(=O)nc1-2	GFP response vs DMSO	98.9% (inactive)
N=C(N)c1ccc(OCCCCCOc2ccc(C(=N)N)cc2)cc1	GFP response vs DMSO	105% (inactive)
CC(C)(C)[C@]1(O)CCN2C[C@H]3c4ccccc4CCc4cccc(c43)[C@@H]2C1	GFP response vs DMSO	97.9% (inactive)

Name the reported GFP response vs DMSO value associated with the compound Cc1cnc(C(=O)N2CCCC(C(=O)c3ccc(Cl)cc3C)C2)cn1 (stereo not given)
99.9% (inactive)

One more compound: Nc1nnc(-c2cccc(Cl)c2Cl)c(N)n1
108% (inactive)

Consider next the compound C[N+](C)(C)CCOP(=O)(O)OP(=O)([O-])OC[C@H]1O[C@@H](n2ccc(N)nc2=O)[C@H](O)[C@@H]1O in the same way.
113% (inactive)

Okay, and Cn1c(=O)oc2cc(S(=O)(=O)N3CCc4ccccc4C3)ccc21 ?
98.9% (inactive)

Now consider COC(=O)c1cc(=O)c2ccc(OC)cc2o1 .
97.9% (inactive)

Same question for Cc1cccc(N(C)C(=S)Oc2ccc3ccccc3c2)c1 please.
114% (inactive)

What would you report for CCOC(=O)Cc1c(C)nc(N)[nH]c1=O ?
95.1% (inactive)

Then this compound: Cc1ccc(-n2ncc3c(Nc4cccc(C(=O)O)c4)ncnc32)cc1
102% (inactive)

How about COC(=O)c1ccc(=O)n(Cc2ccco2)c1 ?
92.8% (inactive)

Same question for CNC[C@H](O)c1ccc(O)c(O)c1 please.
95.9% (inactive)

Follow-up entry: Nc1nc2c(ncn2COCCO)c(=O)[nH]1
123% (inactive)

O=C(/C=C/c1ccco1)N1CCN(c2ccccc2)CC1 , same question.
90.8% (inactive)

Now the same for CN1C(=O)C(O)(CC(=O)/C=C/C=C/c2ccccc2)c2ccccc21 (stereo not given)
98.9% (inactive)

Note, next up: CC(=O)Oc1cc(C(C)C)c(OCCN(C)C)cc1C
104% (inactive)

Try the compound CC(C)CN1CC(C(=O)O)CC1=O (stereo not given)
101% (inactive)

Next record, please: COc1ccccc1C1C(C#N)=C(N)Oc2c1oc(CO)cc2=O (stereo not given)
96.9% (inactive)

Okay, and CCC(C)NCCOCCOc1ccc(Cl)c2ccccc12 (stereo not given) ?
123% (inactive)

And Cc1ccc2[nH]c3c(c2c1)CN(C)CC3 ?
107% (inactive)

Also, CCOC(=O)c1ccccc1NC(=O)c1ccc(F)cc1 please.
108% (inactive)

Quick one: CN(Cc1ccccc1)CC(O)COc1ccc(CNCc2cccnc2)cc1 (stereo not given)
102% (inactive)

Consider next the compound CC(C)(C)NCC(O)c1cc(O)cc(O)c1 (stereo not given) in the same way.
102% (inactive)

Entry to check: CC1=CC2(O)OCCN(CCO)C2=CC1=O (stereo not given)
102% (inactive)

* * *

Test name: RPL19A-GFP modulators, yeast TOR pathway, confirmation, cell-based, S. cerevisiae, flow cytometry, cherry picks, mother/daughter gates (AID 2270)
Protocol conditions: S. cerevisiae RPL19A-GFP strain, 3 h, at 10 µM, active compounds read low, 100 = same GFP as DMSO wells
The source made the active and inactive calls.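 How the source made its calls: active means GFP response below 50% of the DMSO control; inconclusive means fewer than 70 events counted for a yeast strain; inactive means the rest.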
Let's look at some compounds and their measured GFP response vs DMSO.

Test smiles	GFP response vs DMSO
Cc1nc2ccccc2c(=O)n1/N=C/c1ccc([N+](=O)[O-])o1	104% (inactive)
COC(=O)c1ccc(Cn2cc(/C=C\[N+](=O)[O-])c3ccccc32)o1	103% (inactive)
CN(C)c1ccc(/C=N/NC(=O)c2ccc(Cl)cc2)cc1	98% (inactive)
O=C(COC(=O)c1cccs1)Nc1nc(-c2ccccc2)cs1	97% (inactive)
O=c1[nH]c(-c2ccccn2)nc(C(F)(F)F)c1Br	110% (inactive)
COc1cccc(CNC(=O)CCC(=O)N2Cc3cccc(OC)c3Oc3ncccc32)c1OC	99.4% (inactive)
O=C1c2ccccc2C(=O)c2c([N+](=O)[O-])ccc(O)c21	82.2% (inactive)
COc1cc(/C=C2\N=C(C)OC2=O)cc(Cl)c1OC(C)=O	107% (inactive)
COc1ccc(Sc2ncnc3onc(C)c23)cc1	96.7% (inactive)
S=c1[nH]nc(NCCCN2CCOCC2)s1	96% (inactive)

So what's the measured GFP response vs DMSO for this one? O=C1/C(=C\c2ccc(O)c(O)c2)SC(=S)N1Cc1ccccc1
100% (inactive)

* * *

Listed below: vesicle binding response values for each entry.
Test name: inhibitors of CD8+ T cell-vesicle binding, pilot screen, LFA-1/ICAM-1 modulator project, MLPCN validation set, flow cytometry (AID 2523);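 further: mean PE anti-B7-1 fluorescence of CD8+ cells relative to row control; 100% = QL9-loaded vesicles with DMSO vehicle in the same plate row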
Protocol conditions: 2C mouse CD8+ T cells, at 7 µM, active compounds read low
Reply numerically in %, unit not repeated.

Some compounds with recorded vesicle binding response:
Compound	Observed measurement
COc1ccccc1-c1ccc(/C=C2/C=C(CC(C)C)OC2=O)o1	120
COC(=O)c1cc(=O)c2ccc(OC)cc2o1	152
CC(=O)OCC(=O)[C@@]12OC(C)(C)O[C@@H]1C[C@H]1[C@@H]3C[C@H](F)C4=CC(=O)C=C[C@]4(C)[C@@]3(F)[C@@H](O)C[C@@]12C	212

Data request, read-out vesicle binding response, for O=C(CCCCC(=O)NC1CCCC1)NC1CCCC1
181

Moving on to the next compound: N#Cc1c2c(c(-c3ccccc3)[nH]c1=O)CCCC2
158
